- TEST TARGET: DUX4 HD2 Q143E (human, UniProt Q9UBX2 94-153, Q143E)
- Sequence (Q9UBX2 94-153 Q143E): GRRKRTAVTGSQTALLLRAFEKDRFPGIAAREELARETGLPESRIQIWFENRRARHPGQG
- ASSAY PROTOCOL: BLI; BLI on Octet Red 96, biotin-DNA-DRE on SA sensors, protein 0.5-32 uM (HD2) or 0.25-16 uM (HD1-HD2); buffer, salt, pH and temperature not given in the material
- COND: protein: recombinant; tags: N-terminal His-tag, removed with thrombin; blunt
RECORDED METRIC: Kd
Param answer (str): number followed by unit.

For the binder biotin-DNA-DRE (BLI) (dsDNA, biotin) DNA 1: TTCTAATCTAATCA DNA 2: TGATTAGATTAGAA , what Kd is on record?
31 µM
